Data provenance is patent US20250215029A1.

- system under test: Recombinant STAT6 protein (STAT6 (W123-T658)) (Homo sapiens)
- Construct: Recombinant STAT6 protein (STAT6 (W123-T658))
- Sequence (P42226 123-658): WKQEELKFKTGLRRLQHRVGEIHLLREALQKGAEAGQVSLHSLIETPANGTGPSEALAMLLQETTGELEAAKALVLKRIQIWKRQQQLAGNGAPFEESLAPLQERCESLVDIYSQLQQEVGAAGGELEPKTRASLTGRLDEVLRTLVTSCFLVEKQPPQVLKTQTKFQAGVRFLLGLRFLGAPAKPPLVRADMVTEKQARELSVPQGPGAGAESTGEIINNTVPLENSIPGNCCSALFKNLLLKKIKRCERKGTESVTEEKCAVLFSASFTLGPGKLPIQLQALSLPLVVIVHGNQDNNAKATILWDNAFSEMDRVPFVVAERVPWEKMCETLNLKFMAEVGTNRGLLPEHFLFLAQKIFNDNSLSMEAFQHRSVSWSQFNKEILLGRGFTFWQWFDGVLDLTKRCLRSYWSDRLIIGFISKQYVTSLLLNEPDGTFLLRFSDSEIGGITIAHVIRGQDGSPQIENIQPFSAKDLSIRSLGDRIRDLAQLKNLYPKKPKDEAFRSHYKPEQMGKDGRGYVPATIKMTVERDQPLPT
- test summary: STAT6 Fluorescence Polarization (FP) Assay
- Type: binding
- stated conditions: STAT6 250 nM, probe 5-FAM-Ap[…]-NH2 2 nM, 45-minute incubation; read-out: STAT6 (FP assay IC50)
reported metric: IC50

Example entries and their recorded answers appear below.
compound | IC50
O=C(N[C@H]1CCCC[C@H]2CC[C@@H](C(=O)N3CC(Oc4ccccc4)C3)N2C1=O)c1cc2cc(C(F)(F)P(=O)(O)O)ccc2s1 | 300 to 3000 nM
C#Cc1ncoc1C1CN(C(=O)[C@@H]2CC[C@@H]3CCCC[C@H](NC(=O)c4cc5cc(C(F)(F)P(=O)(O)O)ccc5s4)C(=O)N32)C1 | 300 to 3000 nM

We next turn to a different compound, shown below.
Quick one: give measured IC50 for N#C[C@H]1CN(C(=O)[C@@H]2CC[C@@H]3CCCC[C@H](NC(=O)c4cc5cc(C(F)(F)P(=O)(O)O)ccc5s4)C(=O)N32)C[C@H]1c1ccccc1 (relative stereo) 300 to 3000 nM

###

- system under test: Recombinant STAT3 protein (STAT3 (G127-I722)) (Homo sapiens, UniProt P40763)
- Construct: Recombinant STAT3 protein (STAT3 (G127-I722))
- Sequence (P40763 127-722): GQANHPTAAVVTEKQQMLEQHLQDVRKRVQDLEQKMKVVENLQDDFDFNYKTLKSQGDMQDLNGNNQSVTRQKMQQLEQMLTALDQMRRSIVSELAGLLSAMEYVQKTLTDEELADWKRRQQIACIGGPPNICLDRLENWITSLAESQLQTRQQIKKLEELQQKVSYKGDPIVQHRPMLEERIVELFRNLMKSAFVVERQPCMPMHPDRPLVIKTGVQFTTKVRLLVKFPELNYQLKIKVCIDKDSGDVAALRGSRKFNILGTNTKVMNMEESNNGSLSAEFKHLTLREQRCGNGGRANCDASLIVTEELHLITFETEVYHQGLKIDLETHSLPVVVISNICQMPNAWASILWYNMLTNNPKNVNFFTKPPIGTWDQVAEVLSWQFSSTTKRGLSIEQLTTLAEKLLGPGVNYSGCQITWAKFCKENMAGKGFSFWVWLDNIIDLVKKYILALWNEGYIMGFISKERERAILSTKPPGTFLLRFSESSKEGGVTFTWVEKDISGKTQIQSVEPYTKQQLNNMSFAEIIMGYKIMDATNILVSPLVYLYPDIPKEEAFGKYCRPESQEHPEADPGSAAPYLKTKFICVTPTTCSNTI
- test summary: STAT3 Fluorescence Polarization (FP) Assay
- Format: binding
- stated conditions: STAT3 (G127-I722) 25 nM, probe 5-FAM-GpYLPQTV-NH2 2 nM, 45-minute incubation; read-out: STAT3 (FP assay IC50 class)
pIC50: −log10 of the molar value.
Recorded pIC50 by entry

Example entries and their recorded answers appear below.
compound | reported metric | val
COc1nccc(C2CN(C(=O)[C@@H]3CC[C@@H]4CCC[C@H](NC(=O)c5cc6cc([C@@H](F)P(=O)(O)O)ccc6s5)C(=O)N43)C2)c1F (single isomer, unassigned) [Compound 700] | pIC50 | 6.00 to 7.00
COC1CN(c2ccncc2C2CN(C(=O)[C@@H]3CC[C@@H]4CCC[C@H](NC(=O)c5cc6cc([C@@H](F)P(=O)(O)O)ccc6s5)C(=O)N43)C2)C1 [Compound 859] | pIC50 | > 7.00
COC(=O)N1CC[C@@H](NC(=O)[C@@H]2CC[C@@H]3CCCC[C@H](NC(=O)c4cc5cc(C(F)P(=O)(O)O)ccc5s4)C(=O)N32)C1 (stereo partly drawn) [Compound 522] | pIC50 | 5.00 to 6.00

Quick one: give measured pIC50 for Cn1ncc(C2CN(C(=O)[C@@H]3CC[C@@H]4CCC[C@H](NC(=O)c5cc6cc(C(F)P(=O)(O)O)ccc6s5)C(=O)N43)C2)c1F (stereo partly drawn) [Compound 635] 6.00 to 7.00

Quick one: give measured pIC50 for O=C(N[C@H]1CCC[C@H]2CC[C@@H](C(=O)N3CC(c4cc(O)ccn4)C3)N2C1=O)c1cc2cc(CP(=O)(O)O)ccc2s1 [Compound 543] 5.00 to 6.00

Quick one: give measured pIC50 for Cc1ccncc1C1CN(C(=O)[C@@H]2CC[C@@H]3C[C@@H](C)CC[C@H](NC(=O)c4cc5cc(CP(=O)(O)O)ccc5s4)C(=O)N32)C1 [Compound 655] 6.00 to 7.00

Quick one: give measured pIC50 for Cc1ccncc1C1CN(C(=O)[C@@H]2CC[C@@H]3CC(C)C[C@H](NC(=O)c4cc5cc(CP(=O)(O)O)ccc5s4)C(=O)N32)C1 (stereo partly drawn) [Compound 500] 6.00 to 7.00

Quick one: give measured pIC50 for O=C(N[C@H]1CCC[C@H]2CC[C@@H](C(=O)N3CC(c4cnccc4F)C3)N2C1=O)c1cc2cc(C(F)(F)P(=O)(O)O)ccc2s1 [Compound 762] > 7.00

Quick one: give measured pIC50 for O=C(N[C@H]1CCC[C@H]2CC[C@@H](C(=O)N3CC(c4nccc(C(F)(F)F)n4)C3)N2C1=O)c1cc2cc(C(F)(F)P(=O)(O)O)ccc2s1 [Compound 812] 6.00 to 7.00

Quick one: give measured pIC50 for CC(C)[C@@H]1CC[C@H](NC(=O)c2cc3cc(C(F)P(=O)(O)O)ccc3s2)C(=O)N2[C@H](CC[C@H]2C(=O)N2C[C@H](c3ccccc3)[C@@H](C#N)C2)C1 (single isomer, unassigned) [Compound 212] 5.00 to 6.00

Quick one: give measured pIC50 for CC(c1ccc2sc(C(=O)N[C@H]3CCC[C@H]4CC[C@@H](C(=O)N5CC(c6cccnc6)C5)N4C3=O)cc2c1)P(=O)(O)O (stereo partly drawn) [Compound 896] 6.00 to 7.00

Quick one: give measured pIC50 for COc1ccncc1C1CN(C(=O)[C@@H]2CC[C@@H]3C[C@H](C)C[C@H](NC(=O)c4cc5cc([C@H](F)P(=O)(O)O)ccc5s4)C(=O)N32)C1 [Compound 766] > 7.00

###

- system under test: Recombinant STAT6 protein (STAT6 (W123-T658)) (Homo sapiens)
- Construct: Recombinant STAT6 protein (STAT6 (W123-T658))
- Sequence (P42226 123-658): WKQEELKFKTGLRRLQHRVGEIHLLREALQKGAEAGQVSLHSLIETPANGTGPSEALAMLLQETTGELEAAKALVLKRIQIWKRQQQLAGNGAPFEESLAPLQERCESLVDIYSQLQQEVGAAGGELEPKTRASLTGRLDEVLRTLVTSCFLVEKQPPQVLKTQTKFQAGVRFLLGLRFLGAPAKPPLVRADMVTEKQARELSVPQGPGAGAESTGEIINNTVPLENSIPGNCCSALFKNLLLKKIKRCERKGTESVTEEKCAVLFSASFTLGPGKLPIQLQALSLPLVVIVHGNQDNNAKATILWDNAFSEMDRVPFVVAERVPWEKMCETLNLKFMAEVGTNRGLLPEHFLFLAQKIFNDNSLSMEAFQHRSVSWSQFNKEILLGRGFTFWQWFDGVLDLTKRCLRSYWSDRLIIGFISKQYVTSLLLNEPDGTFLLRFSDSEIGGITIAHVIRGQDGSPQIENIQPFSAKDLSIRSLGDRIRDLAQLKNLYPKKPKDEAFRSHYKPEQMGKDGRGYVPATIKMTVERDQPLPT
- test summary: STAT6 Fluorescence Polarization (FP) Assay
- Format: binding
- stated conditions: STAT6 (W123-T658) 250 nM, probe 5-FAM-Ap[…]-NH2 2 nM, 45-minute incubation; read-out: STAT6 (FP assay IC50 class)
pIC50: −log10 of the molar value.
Recorded pIC50 by entry

Example entries and their recorded answers appear below.
molecule | pIC50
O=C(N[C@H]1CCC[C@H]2CC[C@@H](C(=O)N3CC(c4cnccc4C4OCCO4)C3)N2C1=O)c1cc2cc(CP(=O)(O)O)ccc2s1 | 4.52 to 5.52
Cc1ncncc1C1CN(C(=O)[C@@H]2CC[C@@H]3CCC[C@H](NC(=O)c4cc5cc(CP(=O)(O)O)ccc5s4)C(=O)N32)C1 | 4.52 to 5.52

We next turn to a different compound, shown below.
Quick one: give measured pIC50 for "C[C@@H]1C[C@H]2CC[C@@H](C(=O)N3CC(c4cnccc4N(C)C)C3)N2C(=O)[C@@H](NC(=O)c2cc3cc(CP(=O)(O)O)ccc3s2)C1" 4.52 to 5.52

###

Recorded IC50 by entry
- system under test: pY641-STAT6 in PBMC (Homo sapiens, UniProt P42226)
- Construct: Cryopreserved Peripheral Blood Mononuclear Cells (PBMC) are from AllCells; host or cells: cryopreserved PBMC
- Sequence (P42226 1-847): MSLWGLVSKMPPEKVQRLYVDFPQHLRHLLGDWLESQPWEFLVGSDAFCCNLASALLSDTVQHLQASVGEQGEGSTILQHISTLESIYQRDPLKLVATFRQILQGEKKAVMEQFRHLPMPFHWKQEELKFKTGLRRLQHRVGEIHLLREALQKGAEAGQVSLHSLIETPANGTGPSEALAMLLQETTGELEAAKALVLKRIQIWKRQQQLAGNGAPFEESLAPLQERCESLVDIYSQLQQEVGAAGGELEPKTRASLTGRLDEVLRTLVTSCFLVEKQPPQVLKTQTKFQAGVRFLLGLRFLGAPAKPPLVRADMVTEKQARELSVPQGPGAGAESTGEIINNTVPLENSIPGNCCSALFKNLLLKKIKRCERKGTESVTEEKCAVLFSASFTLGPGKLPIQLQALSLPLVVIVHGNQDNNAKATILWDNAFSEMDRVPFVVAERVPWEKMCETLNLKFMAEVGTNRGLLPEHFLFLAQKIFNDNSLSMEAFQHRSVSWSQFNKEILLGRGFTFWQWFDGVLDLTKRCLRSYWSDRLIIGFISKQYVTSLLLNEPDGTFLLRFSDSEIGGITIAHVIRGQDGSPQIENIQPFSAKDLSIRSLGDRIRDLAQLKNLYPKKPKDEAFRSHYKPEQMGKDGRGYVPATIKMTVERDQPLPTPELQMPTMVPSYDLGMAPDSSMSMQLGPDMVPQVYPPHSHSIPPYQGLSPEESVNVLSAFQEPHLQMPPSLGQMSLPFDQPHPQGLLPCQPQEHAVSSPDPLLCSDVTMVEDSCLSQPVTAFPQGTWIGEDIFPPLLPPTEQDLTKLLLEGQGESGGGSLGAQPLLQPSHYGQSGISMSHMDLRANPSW
- test summary: MSD-pSTAT-PBMC Assay (pSTAT6, IL-4 stimulated)
- Assay type: cell-based
- stated conditions: STAT6, PBMC, compound 3 hrs, then 1 ng/mL IL-4 for 10 min; Table 115

compound | val
CCCOC(=O)[C@H](C)NP(=O)(Cc1ccc2sc(C(=O)N[C@H]3C[C@@H](C)C[C@H]4CC[C@@H](C(=O)N5CC(c6cnccc6C)C5)N4C3=O)cc2c1)Oc1ccccc1 (some centres unmarked) | > 3000 nM
CCCOC(=O)[C@H](C)NP(=O)(Oc1ccccc1)[C@@H](F)c1ccc2sc(C(=O)N[C@H]3CC[C@@H](C)C[C@H]4CC[C@@H](C(=O)N5C[C@@H](c6cccnc6)CC56CC6)N4C3=O)cc2c1 (some centres unmarked) | < 100 nM
CCCOC(=O)[C@H](C)NP(=O)(Oc1ccccc1)C(F)c1ccc2sc(C(=O)N[C@H]3CCCCC[C@H]4[C@H](O)C[C@@H](C(=O)N5CC(C#N)[C@H](c6ccccc6)C5)N4C3=O)cc2c1 (relative stereo) | 100 to 1000 nM
CCCCOC(=O)[C@H](C)NP(=O)(Cc1ccc2ccc(C(=O)N[C@H]3CCCC[C@H]4CC[C@@H](C(=O)N5CC(c6ccccc6)CC56CC6)N4C3=O)cc2c1)Oc1cccc2ccccc12 (some centres unmarked) | > 3000 nM

We next turn to a different compound, shown below.
Quick one: give measured IC50 for CCCOC(=O)[C@H](C)NP(=O)(Oc1ccccc1)[C@@H](F)c1ccc2sc(C(=O)N[C@H]3CCC[C@H]4CC[C@@H](C(=O)N5CC(c6cnccc6N(C)C)C5)N4C3=O)cc2c1 (some centres unmarked) > 3000 nM
